Assign reverse-splicing fitness to each entry below.
B1: Azoarcus group I ribozyme (parent)
chain: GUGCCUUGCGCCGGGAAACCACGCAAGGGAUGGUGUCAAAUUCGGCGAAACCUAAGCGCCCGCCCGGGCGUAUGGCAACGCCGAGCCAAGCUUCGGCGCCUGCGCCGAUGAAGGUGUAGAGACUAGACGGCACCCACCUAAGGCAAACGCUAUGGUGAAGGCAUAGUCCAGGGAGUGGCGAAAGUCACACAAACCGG

variants of: B1; assay: reverse-splicing fitness (ratio to wild type); higher = more active; in vitro selection; Mg2+ level not given
Answer field: number only, no words.

Reported reverse-splicing fitness for C82U A111U A120C A145G C150A was 0.0116

Reported reverse-splicing fitness for C82G A145U was 0.509

Reported reverse-splicing fitness for C82G A111U A120U A145U C169U U176C was 0.00275

Reported reverse-splicing fitness for A111G A145U C150U C169A was 0.0341

Reported reverse-splicing fitness for A120C A145U C150U C169G U176G was 0.00463

Reported reverse-splicing fitness for C82U A111C A120G A145G C150U C169G U176G was 0.00467

Reported reverse-splicing fitness for C82A A111C A120U A145U C169A U176G was 0.00264

Reported reverse-splicing fitness for C82A A111C A145U C150A C169U U176A was 0.0155

Reported reverse-splicing fitness for C82U A111G A120G C150G C169U U176A was 0.0121

Reported reverse-splicing fitness for C82U A111C C150U C169A U176A was 0.0124

Reported reverse-splicing fitness for C82U A120U C150G C169G was 0.0055

Reported reverse-splicing fitness for C82A A111U A120U C150G was 0.00757

Reported reverse-splicing fitness for C82A A111C A120G A145C C169G U176C was 0.0156

Reported reverse-splicing fitness for C82U A111C A120C A145G C150U U176A was 0.0113

Reported reverse-splicing fitness for C82A A111U A145G C150A C169A was 0.0117

Reported reverse-splicing fitness for C82A A120C A145C C150A C169A U176A was 0.0195

Reported reverse-splicing fitness for C82A A111U A120U A145C C150G U176G was 0.00265

Reported reverse-splicing fitness for C82G A120G C150G C169G U176A was 0.00768

Reported reverse-splicing fitness for C82A A111G A120C A145U U176G was 0.00629

Reported reverse-splicing fitness for C82A A111C C150U C169G U176G was 0.00899

Reported reverse-splicing fitness for C82G A111C A120C A145C C150G U176C was 0.00825

Reported reverse-splicing fitness for C82A A120C A145G C150G C169U U176G was 0.00779
